- system: GAA (human acid α-glucosidase; rhGAA) (Homo sapiens, UniProt P10253)

[
  {
    "molecule": "OC[C@H]1OC(O)[C@H](O)[C@@H](O)[C@@H]1O (mixture of isomers)",
    "readoutUnit": "mM",
    "Ki": 5.8
  }
]
